Test system: human PCSK9 locus
Test: Secreted PCSK9 by ELISA (normalized to total cell count) in Huh7 cells transfected with mRNA and gRNA
Format: cell-based
Conditions: 50 ng mRNA:25 ng gRNA; paired with LTRP5-ADD-ZIM3 mRNA; Huh7 cells; 6 days post-transfection; normalized to total cell count
reportedEndpoint: Secreted PCSK9 (ng/mL)
The response must be a number in ng/mL with no trailing unit.

Would you kindly share the measured Secreted PCSK9 for AGGAGCAGCUAGUUGGUAAG (listed as RNA, chemistry not given here) [spacer 6.139, Promoter] ?
15.03

Would you kindly share the measured Secreted PCSK9 for AGAAAGAGCAAGCCUCAUGU (listed as RNA, chemistry not given here) [spacer 6.125, Promoter] ?
24.93

Would you kindly share the measured Secreted PCSK9 for CAGUAUCGACAGCCCUUCCA (listed as RNA, chemistry not given here) [spacer 6.124, Promoter] ?
16.54

Would you kindly share the measured Secreted PCSK9 for TG-06-350 (guide GUGUCAUAAAGAAAUUGCCU; listed as RNA, chemistry not given here) ?
71.25

Would you kindly share the measured Secreted PCSK9 for AUGGUAGGCACAAGCUCAGC (listed as RNA, chemistry not given here) [spacer 6.133, Promoter] ?
29.45

Would you kindly share the measured Secreted PCSK9 for AGCCCAGUUAGGAUUUGGGA (listed as RNA, chemistry not given here) [spacer 6.149, Promoter] ?
21.18

Would you kindly share the measured Secreted PCSK9 for ACUUUGUUUGCAAAGACCUC (listed as RNA, chemistry not given here) [spacer 6.117, Promoter] ?
68.98

###

System: human PCSK9 locus
Assay: Secreted PCSK9 by ELISA (normalized to total cell count) in Huh7 cells transfected with mRNA and gRNA
Assay type: cell-based
Conditions: averaged from the two doses; paired with LTRP5-ADD-ZIM3 mRNA; Huh7 cells; 6 days post-transfection
reportedEndpoint: Average percent reduction in PCSK9 secretion (%)
The response must be a number in % with no trailing unit.

// map TG-06-250 (guide GAUUUGGUUUGGAAAACAUG; listed as RNA, chemistry not given here) to recorded Average percent reduction in PCSK9 secretion (system: human PCSK9 locus)
9.26

// map TG-06-348 (guide AGGCAUUCACUCCUUCACCC; listed as RNA, chemistry not given here) to recorded Average percent reduction in PCSK9 secretion (system: human PCSK9 locus)
60.99

// map GCCUCGCCCUCCCCAAACAG (listed as RNA, chemistry not given here) [spacer 6.152, Promoter] to recorded Average percent reduction in PCSK9 secretion (system: human PCSK9 locus)
37.24

// map UGAACAUGGUGUGUAAAAGG (listed as RNA, chemistry not given here) [spacer 6.131, Promoter] to recorded Average percent reduction in PCSK9 secretion (system: human PCSK9 locus)
42.11

// map TG-06-1046 (guide UCUCUUACAUGGGGGGAAAC; listed as RNA, chemistry not given here) to recorded Average percent reduction in PCSK9 secretion (system: human PCSK9 locus)
1.48

// map TG-06-342 (guide AAUUACAGGCAACAGGAAGG; listed as RNA, chemistry not given here) to recorded Average percent reduction in PCSK9 secretion (system: human PCSK9 locus)
15.87

###

Test system: human PCSK9 locus
Experiment: Secreted PCSK9 by ELISA (normalized to total cell count) in Huh7 cells transfected with mRNA and gRNA
Type: cell-based
Conditions: averaged from the two doses; paired with LTRP5-ADD-ZIM3 mRNA; Huh7 cells; 6 days post-transfection
Can you tell me Average percent reduction in PCSK9 secretion for the items I'm about to list?
The response must be a number in % with no trailing unit.

Would you kindly share the measured Average percent reduction in PCSK9 secretion for GUGUUUCCUGGGUCCACCUU (listed as RNA, chemistry not given here) [spacer 6.147, Promoter] ?
41.15

Would you kindly share the measured Average percent reduction in PCSK9 secretion for GUUAAUGUUUAAUCAGAUAG (listed as RNA, chemistry not given here) [spacer 6.153, Promoter] ?
5.27

Would you kindly share the measured Average percent reduction in PCSK9 secretion for TG-06-002 (guide ACCGCUGCGCCAAGGUGCGG; listed as RNA, chemistry not given here) ?
8.16

Would you kindly share the measured Average percent reduction in PCSK9 secretion for UCCCAGUAUCGACAGCCCUU (listed as RNA, chemistry not given here) [spacer 6.123, Promoter] ?
45.46

Would you kindly share the measured Average percent reduction in PCSK9 secretion for TG-06-345 (guide GCCUCGCCGCGGCACAGGUG; listed as RNA, chemistry not given here) ?
9.49

Would you kindly share the measured Average percent reduction in PCSK9 secretion for TG-06-346 (guide CCCACCUGUGCCGCGGCGAG; listed as RNA, chemistry not given here) ?
4.09
